meta.source: a melting point compilation (Tetko et al.; mined from patent text by program, amines drawn as free bases though some values may be those of a salt)

assay-metric: melting point

{"chemical-structure": "Cc1ccccc1CN(CC(=O)OC(C)(C)C)S(=O)(=O)c1ccc2c(Cl)cnc(Cl)c2c1", "melting point": "96 to 98 °C"}

Recorded melting point (compound CCN(Cc1ccc(Cl)cc1Cl)C(=O)n1oc(C)c(Cl)c1=O ): 80.5 to 81.5 °C

Recorded melting point (compound COc1ccc(C(=O)CC(C)(C)C(=O)O)cc1OC ): 114 to 116 °C

Recorded melting point (compound COc1cc(OC)c(-c2cccs2)cc1/C=C/C(=O)c1ccc(C(=O)O)cc1 ): 213 to 216 °C

Recorded melting point (compound O=c1ccc2c(-n3ccnc3)nccc2[nH]1 ): 291 to 292 °C

Recorded melting point (compound CN(C)C(=O)CNC(=O)c1ccc(-c2ccc3nnn(Cc4ccc5ncccc5c4)c3n2)cc1F ): 177 to 179 °C

Recorded melting point (compound CCCCCCCCCCCCNC(=O)c1cc(Br)c(OCCn2ncnn2)c(-c2cccc(C(F)(F)F)c2)c1 ): 75.6 to 76.2 °C

Recorded melting point (compound CCc1nc2c(Cl)cc(F)c([N+](=O)[O-])c2s1 ): 70 to 73 °C

Recorded melting point (compound NC(=O)c1c(C(F)(F)F)ccc(Cl)c1F ): 123 to 125 °C

Recorded melting point (compound Cc1nc(N)c2nc(C)n(CCOCCNC(=O)C(C)C)c2c1C ): 180 to 182 °C
